Source of measurements: the supplement of paper PMC6757056

B1: library; a variant is named by its letters at N, in order (parent)
chain: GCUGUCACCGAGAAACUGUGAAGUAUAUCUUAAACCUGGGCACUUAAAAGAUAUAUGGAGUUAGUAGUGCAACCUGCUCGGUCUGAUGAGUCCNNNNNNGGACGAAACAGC

# Variants of: B1
# ASSAY_METHOD_TEXT: FACS-Seq fitted mean relative fluorescence mCherry/BFP without ligand (log10 relative fluorescence); HEK293T; ligand: cyclic di-GMP (c-di-GMP-II aptamer); higher = higher reporter protein expression
# EXPERIMENTAL_SETUP: ligand present: no
Consider the following partition of reported FACS-Seq fitted mean (log10) into named classes: lower range: < -0.5; middle range: ≥ -0.5 and < -0.3; upper range: ≥ -0.3

{"BIOSEQUENCE": "GCUGUCACCGAGAAACUGUGAAGUAUAUCUUAAACCUGGGCACUUAAAAGAUAUAUGGAGUUAGUAGUGCAACCUGCUCGGUCUGAUGAGUCCUGAUGAGGACGAAACAGC [UGAUGA]", "GROUP_LABEL": "upper range"}
{"BIOSEQUENCE": "GCUGUCACCGAGAAACUGUGAAGUAUAUCUUAAACCUGGGCACUUAAAAGAUAUAUGGAGUUAGUAGUGCAACCUGCUCGGUCUGAUGAGUCCGAUGUAGGACGAAACAGC [GAUGUA]", "GROUP_LABEL": "middle range"}
{"BIOSEQUENCE": "GCUGUCACCGAGAAACUGUGAAGUAUAUCUUAAACCUGGGCACUUAAAAGAUAUAUGGAGUUAGUAGUGCAACCUGCUCGGUCUGAUGAGUCCCGGGAGGGACGAAACAGC [CGGGAG]", "GROUP_LABEL": "lower range"}
{"BIOSEQUENCE": "GCUGUCACCGAGAAACUGUGAAGUAUAUCUUAAACCUGGGCACUUAAAAGAUAUAUGGAGUUAGUAGUGCAACCUGCUCGGUCUGAUGAGUCCAGUGUCGGACGAAACAGC [AGUGUC]", "GROUP_LABEL": "upper range"}
{"BIOSEQUENCE": "GCUGUCACCGAGAAACUGUGAAGUAUAUCUUAAACCUGGGCACUUAAAAGAUAUAUGGAGUUAGUAGUGCAACCUGCUCGGUCUGAUGAGUCCACGUUUGGACGAAACAGC [ACGUUU]", "GROUP_LABEL": "lower range"}
{"BIOSEQUENCE": "GCUGUCACCGAGAAACUGUGAAGUAUAUCUUAAACCUGGGCACUUAAAAGAUAUAUGGAGUUAGUAGUGCAACCUGCUCGGUCUGAUGAGUCCAUGAGUGGACGAAACAGC [AUGAGU]", "GROUP_LABEL": "middle range"}
{"BIOSEQUENCE": "GCUGUCACCGAGAAACUGUGAAGUAUAUCUUAAACCUGGGCACUUAAAAGAUAUAUGGAGUUAGUAGUGCAACCUGCUCGGUCUGAUGAGUCCCGUCAAGGACGAAACAGC [CGUCAA]", "GROUP_LABEL": "lower range"}
{"BIOSEQUENCE": "GCUGUCACCGAGAAACUGUGAAGUAUAUCUUAAACCUGGGCACUUAAAAGAUAUAUGGAGUUAGUAGUGCAACCUGCUCGGUCUGAUGAGUCCACCUGAGGACGAAACAGC [ACCUGA]", "GROUP_LABEL": "middle range"}
{"BIOSEQUENCE": "GCUGUCACCGAGAAACUGUGAAGUAUAUCUUAAACCUGGGCACUUAAAAGAUAUAUGGAGUUAGUAGUGCAACCUGCUCGGUCUGAUGAGUCCCGUAAAGGACGAAACAGC [CGUAAA]", "GROUP_LABEL": "lower range"}
{"BIOSEQUENCE": "GCUGUCACCGAGAAACUGUGAAGUAUAUCUUAAACCUGGGCACUUAAAAGAUAUAUGGAGUUAGUAGUGCAACCUGCUCGGUCUGAUGAGUCCAUGAAAGGACGAAACAGC [AUGAAA]", "GROUP_LABEL": "lower range"}
{"BIOSEQUENCE": "GCUGUCACCGAGAAACUGUGAAGUAUAUCUUAAACCUGGGCACUUAAAAGAUAUAUGGAGUUAGUAGUGCAACCUGCUCGGUCUGAUGAGUCCGUGCCGGGACGAAACAGC [GUGCCG]", "GROUP_LABEL": "middle range"}
{"BIOSEQUENCE": "GCUGUCACCGAGAAACUGUGAAGUAUAUCUUAAACCUGGGCACUUAAAAGAUAUAUGGAGUUAGUAGUGCAACCUGCUCGGUCUGAUGAGUCCCGGGGCGGACGAAACAGC [CGGGGC]", "GROUP_LABEL": "upper range"}
{"BIOSEQUENCE": "GCUGUCACCGAGAAACUGUGAAGUAUAUCUUAAACCUGGGCACUUAAAAGAUAUAUGGAGUUAGUAGUGCAACCUGCUCGGUCUGAUGAGUCCGAAAGAGGACGAAACAGC [GAAAGA]", "GROUP_LABEL": "middle range"}
{"BIOSEQUENCE": "GCUGUCACCGAGAAACUGUGAAGUAUAUCUUAAACCUGGGCACUUAAAAGAUAUAUGGAGUUAGUAGUGCAACCUGCUCGGUCUGAUGAGUCCCGGUCAGGACGAAACAGC [CGGUCA]", "GROUP_LABEL": "middle range"}
{"BIOSEQUENCE": "GCUGUCACCGAGAAACUGUGAAGUAUAUCUUAAACCUGGGCACUUAAAAGAUAUAUGGAGUUAGUAGUGCAACCUGCUCGGUCUGAUGAGUCCUUGCGUGGACGAAACAGC [UUGCGU]", "GROUP_LABEL": "middle range"}
{"BIOSEQUENCE": "GCUGUCACCGAGAAACUGUGAAGUAUAUCUUAAACCUGGGCACUUAAAAGAUAUAUGGAGUUAGUAGUGCAACCUGCUCGGUCUGAUGAGUCCGCUAGAGGACGAAACAGC [GCUAGA]", "GROUP_LABEL": "middle range"}
{"BIOSEQUENCE": "GCUGUCACCGAGAAACUGUGAAGUAUAUCUUAAACCUGGGCACUUAAAAGAUAUAUGGAGUUAGUAGUGCAACCUGCUCGGUCUGAUGAGUCCCAAUGUGGACGAAACAGC [CAAUGU]", "GROUP_LABEL": "upper range"}
{"BIOSEQUENCE": "GCUGUCACCGAGAAACUGUGAAGUAUAUCUUAAACCUGGGCACUUAAAAGAUAUAUGGAGUUAGUAGUGCAACCUGCUCGGUCUGAUGAGUCCGCCAAGGGACGAAACAGC [GCCAAG]", "GROUP_LABEL": "lower range"}
{"BIOSEQUENCE": "GCUGUCACCGAGAAACUGUGAAGUAUAUCUUAAACCUGGGCACUUAAAAGAUAUAUGGAGUUAGUAGUGCAACCUGCUCGGUCUGAUGAGUCCGCGGUUGGACGAAACAGC [GCGGUU]", "GROUP_LABEL": "lower range"}
{"BIOSEQUENCE": "GCUGUCACCGAGAAACUGUGAAGUAUAUCUUAAACCUGGGCACUUAAAAGAUAUAUGGAGUUAGUAGUGCAACCUGCUCGGUCUGAUGAGUCCAAGGUGGGACGAAACAGC [AAGGUG]", "GROUP_LABEL": "upper range"}
{"BIOSEQUENCE": "GCUGUCACCGAGAAACUGUGAAGUAUAUCUUAAACCUGGGCACUUAAAAGAUAUAUGGAGUUAGUAGUGCAACCUGCUCGGUCUGAUGAGUCCAAAUUGGGACGAAACAGC [AAAUUG]", "GROUP_LABEL": "upper range"}
{"BIOSEQUENCE": "GCUGUCACCGAGAAACUGUGAAGUAUAUCUUAAACCUGGGCACUUAAAAGAUAUAUGGAGUUAGUAGUGCAACCUGCUCGGUCUGAUGAGUCCGCAAACGGACGAAACAGC [GCAAAC]", "GROUP_LABEL": "lower range"}
{"BIOSEQUENCE": "GCUGUCACCGAGAAACUGUGAAGUAUAUCUUAAACCUGGGCACUUAAAAGAUAUAUGGAGUUAGUAGUGCAACCUGCUCGGUCUGAUGAGUCCAAGAUAGGACGAAACAGC [AAGAUA]", "GROUP_LABEL": "middle range"}
{"BIOSEQUENCE": "GCUGUCACCGAGAAACUGUGAAGUAUAUCUUAAACCUGGGCACUUAAAAGAUAUAUGGAGUUAGUAGUGCAACCUGCUCGGUCUGAUGAGUCCCAUCGAGGACGAAACAGC [CAUCGA]", "GROUP_LABEL": "upper range"}
{"BIOSEQUENCE": "GCUGUCACCGAGAAACUGUGAAGUAUAUCUUAAACCUGGGCACUUAAAAGAUAUAUGGAGUUAGUAGUGCAACCUGCUCGGUCUGAUGAGUCCCCGCACGGACGAAACAGC [CCGCAC]", "GROUP_LABEL": "upper range"}
{"BIOSEQUENCE": "GCUGUCACCGAGAAACUGUGAAGUAUAUCUUAAACCUGGGCACUUAAAAGAUAUAUGGAGUUAGUAGUGCAACCUGCUCGGUCUGAUGAGUCCGUCUUGGGACGAAACAGC [GUCUUG]", "GROUP_LABEL": "upper range"}
{"BIOSEQUENCE": "GCUGUCACCGAGAAACUGUGAAGUAUAUCUUAAACCUGGGCACUUAAAAGAUAUAUGGAGUUAGUAGUGCAACCUGCUCGGUCUGAUGAGUCCGUACGAGGACGAAACAGC [GUACGA]", "GROUP_LABEL": "middle range"}
{"BIOSEQUENCE": "GCUGUCACCGAGAAACUGUGAAGUAUAUCUUAAACCUGGGCACUUAAAAGAUAUAUGGAGUUAGUAGUGCAACCUGCUCGGUCUGAUGAGUCCCGUUAAGGACGAAACAGC [CGUUAA]", "GROUP_LABEL": "lower range"}
{"BIOSEQUENCE": "GCUGUCACCGAGAAACUGUGAAGUAUAUCUUAAACCUGGGCACUUAAAAGAUAUAUGGAGUUAGUAGUGCAACCUGCUCGGUCUGAUGAGUCCUGUAAAGGACGAAACAGC [UGUAAA]", "GROUP_LABEL": "upper range"}
{"BIOSEQUENCE": "GCUGUCACCGAGAAACUGUGAAGUAUAUCUUAAACCUGGGCACUUAAAAGAUAUAUGGAGUUAGUAGUGCAACCUGCUCGGUCUGAUGAGUCCGCGCUAGGACGAAACAGC [GCGCUA]", "GROUP_LABEL": "lower range"}
{"BIOSEQUENCE": "GCUGUCACCGAGAAACUGUGAAGUAUAUCUUAAACCUGGGCACUUAAAAGAUAUAUGGAGUUAGUAGUGCAACCUGCUCGGUCUGAUGAGUCCCUUUCCGGACGAAACAGC [CUUUCC]", "GROUP_LABEL": "upper range"}
{"BIOSEQUENCE": "GCUGUCACCGAGAAACUGUGAAGUAUAUCUUAAACCUGGGCACUUAAAAGAUAUAUGGAGUUAGUAGUGCAACCUGCUCGGUCUGAUGAGUCCGCGCAUGGACGAAACAGC [GCGCAU]", "GROUP_LABEL": "upper range"}
{"BIOSEQUENCE": "GCUGUCACCGAGAAACUGUGAAGUAUAUCUUAAACCUGGGCACUUAAAAGAUAUAUGGAGUUAGUAGUGCAACCUGCUCGGUCUGAUGAGUCCACAUUAGGACGAAACAGC [ACAUUA]", "GROUP_LABEL": "upper range"}
{"BIOSEQUENCE": "GCUGUCACCGAGAAACUGUGAAGUAUAUCUUAAACCUGGGCACUUAAAAGAUAUAUGGAGUUAGUAGUGCAACCUGCUCGGUCUGAUGAGUCCGAAACAGGACGAAACAGC [GAAACA]", "GROUP_LABEL": "middle range"}
{"BIOSEQUENCE": "GCUGUCACCGAGAAACUGUGAAGUAUAUCUUAAACCUGGGCACUUAAAAGAUAUAUGGAGUUAGUAGUGCAACCUGCUCGGUCUGAUGAGUCCGAAUAAGGACGAAACAGC [GAAUAA]", "GROUP_LABEL": "upper range"}
{"BIOSEQUENCE": "GCUGUCACCGAGAAACUGUGAAGUAUAUCUUAAACCUGGGCACUUAAAAGAUAUAUGGAGUUAGUAGUGCAACCUGCUCGGUCUGAUGAGUCCGCAACAGGACGAAACAGC [GCAACA]", "GROUP_LABEL": "lower range"}
{"BIOSEQUENCE": "GCUGUCACCGAGAAACUGUGAAGUAUAUCUUAAACCUGGGCACUUAAAAGAUAUAUGGAGUUAGUAGUGCAACCUGCUCGGUCUGAUGAGUCCUCUUGAGGACGAAACAGC [UCUUGA]", "GROUP_LABEL": "lower range"}
{"BIOSEQUENCE": "GCUGUCACCGAGAAACUGUGAAGUAUAUCUUAAACCUGGGCACUUAAAAGAUAUAUGGAGUUAGUAGUGCAACCUGCUCGGUCUGAUGAGUCCGACCUAGGACGAAACAGC [GACCUA]", "GROUP_LABEL": "upper range"}
{"BIOSEQUENCE": "GCUGUCACCGAGAAACUGUGAAGUAUAUCUUAAACCUGGGCACUUAAAAGAUAUAUGGAGUUAGUAGUGCAACCUGCUCGGUCUGAUGAGUCCAGCUCGGGACGAAACAGC [AGCUCG]", "GROUP_LABEL": "upper range"}
{"BIOSEQUENCE": "GCUGUCACCGAGAAACUGUGAAGUAUAUCUUAAACCUGGGCACUUAAAAGAUAUAUGGAGUUAGUAGUGCAACCUGCUCGGUCUGAUGAGUCCUGGGAAGGACGAAACAGC [UGGGAA]", "GROUP_LABEL": "upper range"}
{"BIOSEQUENCE": "GCUGUCACCGAGAAACUGUGAAGUAUAUCUUAAACCUGGGCACUUAAAAGAUAUAUGGAGUUAGUAGUGCAACCUGCUCGGUCUGAUGAGUCCGCACUCGGACGAAACAGC [GCACUC]", "GROUP_LABEL": "upper range"}
{"BIOSEQUENCE": "GCUGUCACCGAGAAACUGUGAAGUAUAUCUUAAACCUGGGCACUUAAAAGAUAUAUGGAGUUAGUAGUGCAACCUGCUCGGUCUGAUGAGUCCACGGAGGGACGAAACAGC [ACGGAG]", "GROUP_LABEL": "lower range"}
{"BIOSEQUENCE": "GCUGUCACCGAGAAACUGUGAAGUAUAUCUUAAACCUGGGCACUUAAAAGAUAUAUGGAGUUAGUAGUGCAACCUGCUCGGUCUGAUGAGUCCAUUCCAGGACGAAACAGC [AUUCCA]", "GROUP_LABEL": "upper range"}
